experimental-target: T1, 4H2438-bA
T1 chain: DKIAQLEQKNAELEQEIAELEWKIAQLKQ
assay-remarks: two-hybrid library CCNG1;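 further: natural log of median RNA to DNA barcode read ratio; higher means stronger binding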
property-measured: interaction score
The reply should be a number, written without any unit.

stdin: Sample DKIAQLEQEIAELKQENAELEWKIAQLKQ [4H2134-bA] — what was its interaction score?
stdout: 0.819

stdin: Would you kindly share the measured interaction score for DKIAQLEQKNAELEQEIAELEWKIAQLKQ [4H2438-bA] ?
stdout: 1.74

stdin: interaction score for DKIAQLEQENAELEQKIAELKWKNAQLEQ [4H2223-bA] ?
stdout: 0.457

stdin: // interaction score lookup, key: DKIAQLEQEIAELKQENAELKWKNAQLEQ [4H2143-bA]
stdout: -0.866

stdin: Consider the binder DEIAQLEQENAELEQKNAELEWKIAQLKQ [4H182-bA] and give its measured interaction score.
stdout: -0.622

stdin: What does the data say about its interaction score? Entry: DEIAQLEQEIAELKQKNAELKWEIAQLEQ [4H121-bA]
stdout: 1.56
